measurementTarget: human URAT1 (Homo sapiens, UniProt Q96S37)
Construct: expressed in transfected cells; host or cells: HEK293T cells (ATCC CRL-11268)
Sequence (Q96S37 whole entry): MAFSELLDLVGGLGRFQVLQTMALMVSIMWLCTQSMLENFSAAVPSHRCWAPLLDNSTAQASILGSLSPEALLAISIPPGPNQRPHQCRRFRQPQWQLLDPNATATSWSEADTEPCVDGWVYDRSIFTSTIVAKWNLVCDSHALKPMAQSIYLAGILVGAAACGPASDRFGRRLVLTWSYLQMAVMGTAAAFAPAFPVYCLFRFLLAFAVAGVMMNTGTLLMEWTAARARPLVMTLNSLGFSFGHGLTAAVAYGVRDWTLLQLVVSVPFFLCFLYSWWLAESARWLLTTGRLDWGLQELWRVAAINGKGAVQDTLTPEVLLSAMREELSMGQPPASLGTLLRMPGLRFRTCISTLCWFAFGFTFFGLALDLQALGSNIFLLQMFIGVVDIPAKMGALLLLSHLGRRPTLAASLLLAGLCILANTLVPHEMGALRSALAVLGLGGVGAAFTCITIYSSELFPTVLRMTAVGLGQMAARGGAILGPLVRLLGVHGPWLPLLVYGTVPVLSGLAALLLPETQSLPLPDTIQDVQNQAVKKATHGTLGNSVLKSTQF
experimentNotes: In vitro URAT1 inhibitory assay (14C-uric acid uptake in HEK293T cells expressing human URAT1)
Format: cell-based
statedConditions: HEK-293T; 10 μM compound; mean of three measurements; HEK293-URAT1 cells, 14C-labeled uric acid substrate
// not fulfilled strictly below 80% in inhibition at 10 µM; fulfilled otherwise

COc1ccc2c(c1)CCCN2C(=O)c1ccccc1-c1ccccc1C(=O)O :: fulfilled
O=C(O)c1ccccc1-c1ccccc1-c1nc(-c2ccc(F)cc2)no1 :: not fulfilled
O=C(O)CCNC(=O)c1ccccc1-c1ccccc1-c1nc(-c2ccncc2Cl)no1 :: not fulfilled
O=C(O)c1ccccc1-c1ccccc1-c1nc(-c2cccc(Br)c2)no1 :: not fulfilled
Cc1cc(-c2noc(-c3ccccc3-c3ccccc3C(=O)O)n2)ccn1 :: fulfilled
Cc1ccc(-c2noc(-c3ccccc3-c3ccccc3C(=O)O)n2)cc1 :: not fulfilled
O=C(O)c1ccccc1-c1ccccc1C(=O)N1CCCCc2ccccc21 :: not fulfilled
O=C(O)c1ccccc1-c1ccccc1C(=O)N1CCCc2ccc(-c3ccncc3)cc21 :: fulfilled
O=C(O)c1ccccc1-c1ccccc1C(=O)N1CCOc2ccccc21 :: not fulfilled
COc1cc(-c2noc(-c3ccccc3-c3ccccc3C(=O)O)n2)ccn1 :: fulfilled
O=C(O)c1ccccc1-c1ccccc1-c1nc(-c2ccccn2)no1 :: not fulfilled
O=C(O)c1ccccc1-c1ccccc1C(=O)N1CCCc2cc(Br)ccc21 :: fulfilled
O=C(O)c1ccccc1-c1ccccc1-c1nc(-c2ccc(Cl)cc2)no1 :: not fulfilled
O=C(O)c1ccccc1-c1ccccc1-c1nc(-c2cnc3ccccc3c2)no1 :: not fulfilled
O=C(O)c1ccccc1-c1ccccc1-c1nc(-c2ccc(C(F)(F)F)cc2)no1 :: not fulfilled
O=C(O)c1ccccc1-c1ccccc1C(=O)N1CCCc2ccccc21 :: fulfilled
O=C(O)c1ccc(-c2ccccc2-c2nc(-c3ccncc3)no2)cc1 :: not fulfilled

* * *

measurementTarget: human URAT1 (Homo sapiens)
Construct: expressed in transfected cells; host or cells: HEK293T cells (ATCC CRL-11268)
experimentNotes: In vitro URAT1 inhibitory assay (14C-uric acid uptake in HEK293T cells expressing human URAT1)
Type: cell-based
statedConditions: HEK-293T; 10 μM compound; mean of three measurements; HEK293-URAT1 cells, 14C-labeled uric acid substrate
Procedure: All the target compounds were evaluated for their URAT1 inhibitory activities in HEK293-URAT1 cells using ^14C-labeled uric acid as the substrate. […] The SAR exploration on series A compounds mainly focused on the hydrophobic component. […] In Vitro URAT1 Inhibitory Assay. […] Finally, the 96-plate was counted in a MicroBeta2 (PerkinElmer). The data were analyzed and IC50 values was calculated with GraphPad Prism 6 software.
valueKind: inhibition at 10 µM (%)

O=C(O)c1ccccc1-c1ccccc1-c1nc(-c2ccc3ncccc3c2)no1 :: 67
COc1ccc(-c2noc(-c3ccccc3-c3ccccc3C(=O)O)n2)c2ccccc12 :: 42
Cc1ccc2c(c1)CCCN2C(=O)c1ccccc1-c1ccccc1C(=O)O :: 91
O=C(O)c1ccccc1-c1ccccc1-c1nc(-c2ccnc(Cl)c2)no1 :: 97
O=C(O)c1ccccc1-c1ccccc1-c1nc(-c2ccnc3ccccc23)no1 :: 89
O=C(O)c1ccccc1-c1ccccc1C(=O)N1CCc2ccccc21 :: 77
